- test.system: mGPR65 (Mus musculus, UniProt Q61038)
- Construct: expressed in transfected cells; host or cells: HeLa (ATCC CCL-2), lentiviral transduction, pLX317
- Sequence (Q61038 whole entry): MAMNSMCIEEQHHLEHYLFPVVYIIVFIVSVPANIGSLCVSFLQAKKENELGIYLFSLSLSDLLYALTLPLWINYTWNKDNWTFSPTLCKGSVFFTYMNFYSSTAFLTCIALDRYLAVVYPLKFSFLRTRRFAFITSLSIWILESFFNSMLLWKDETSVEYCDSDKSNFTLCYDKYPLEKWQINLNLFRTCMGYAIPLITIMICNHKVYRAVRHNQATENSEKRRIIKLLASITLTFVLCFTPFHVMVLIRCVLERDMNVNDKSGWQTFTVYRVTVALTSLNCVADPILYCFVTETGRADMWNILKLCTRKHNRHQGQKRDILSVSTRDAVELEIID
- test.name: cAMP detection in HeLa expression cell line, mGPR65
- Format: cell-based
- measurement.setup: HeLa; relative to 100uM forskolin (100%) and DMSO (0%); NA = no activity; read-out: mGPR Max Activity %
Give Emax for every item shown.
Could you give me the number in %? Just the number is fine.

For COc1ccc(-c2cc(O)n3ncc(C(=O)Nc4ccc(C)cc4)c3n2)cc1 the compound record lists Emax as -56.6

Entry Cc1ccc(NC(=O)c2cnn3c(O)cc(-c4ccc(Cl)cc4)nc23)cc1 — recorded Emax = 24.9

So, CCOCc1ccc(-c2cc(O)n3ncc(C(=O)Nc4ccccc4)c3n2)cc1 ? Its Emax was 52.1

* * *

Please go through the items and note down their EC50.
- test.system: human GPR4 (hGPR4) (Homo sapiens, UniProt P46093)
- Construct: expressed in transfected cells; host or cells: HeLa (ATCC CCL-2), lentiviral transduction, pLX317
- Sequence (P46093 whole entry): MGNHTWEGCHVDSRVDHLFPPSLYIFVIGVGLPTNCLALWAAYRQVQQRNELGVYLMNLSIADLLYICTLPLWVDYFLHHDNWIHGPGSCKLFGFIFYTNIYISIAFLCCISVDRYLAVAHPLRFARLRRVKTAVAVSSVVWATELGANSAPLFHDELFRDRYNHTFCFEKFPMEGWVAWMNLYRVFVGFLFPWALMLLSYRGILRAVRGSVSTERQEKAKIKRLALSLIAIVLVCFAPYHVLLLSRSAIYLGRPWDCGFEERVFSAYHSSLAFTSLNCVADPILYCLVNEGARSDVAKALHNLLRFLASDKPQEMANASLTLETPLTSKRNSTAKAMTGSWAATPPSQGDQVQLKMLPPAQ
- test.name: cAMP detection in HeLa expression cell line, hGPR4
- Assay type: cell-based
- measurement.setup: GPR4 EC50 (uM); pH 7.2, 30 min
Quick reminder: number only, in µM, skip the unit.

What the record says about Cc1ccc(NC(=O)c2cnn3c(O)cc(-c4ccc(COC(C)C)c(Cl)c4)nc23)cc1 : EC50 is 1.68

# EC50 of Cc1ccc(NC(=O)c2cnn3c(O)cc(-c4ccc(F)c(Cl)c4)nc23)cc1 = 0.494

* * *

Hi there, I'd appreciate the recorded EC50 for every entry that follows.
- test.system: hGPR65 (Homo sapiens, UniProt Q8IYL9)
- Construct: expressed in transfected cells; host or cells: HeLa (ATCC CCL-2), lentiviral transduction, pLX317
- Sequence (Q8IYL9 whole entry): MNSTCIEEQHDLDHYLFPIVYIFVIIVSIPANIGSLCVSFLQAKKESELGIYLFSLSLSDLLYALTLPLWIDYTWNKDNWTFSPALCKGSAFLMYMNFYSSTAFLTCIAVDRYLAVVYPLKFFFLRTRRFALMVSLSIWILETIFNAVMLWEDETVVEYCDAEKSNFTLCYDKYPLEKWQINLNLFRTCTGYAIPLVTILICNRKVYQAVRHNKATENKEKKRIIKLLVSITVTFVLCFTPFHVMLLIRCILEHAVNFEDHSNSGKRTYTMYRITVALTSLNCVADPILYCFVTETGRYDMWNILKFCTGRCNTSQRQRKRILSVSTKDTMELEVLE
- test.name: cAMP detection (Lance Ultra), GPR65 KO HeLa reconstituted with hGPR65; 21K screen dose confirmation
- Type: cell-based
- measurement.setup: HeLa GPR65 KO + hGPR65, pH 7.1, 30 min, normalized to DMSO and 100 μM forskolin; read-out: WT EC50
Provide only the numeric value, understood in µM.

The compound listed as O=C(O)C1CCN(c2ncnc3ccccc23)CC1 shows EC50 equal to 54.4

EC50 reported for this compound Clc1ccc2c(N3CCCC4(CCNC4)C3)ccnc2c1 (stereo not shown) : 26.2

Record COc1ccc(S(=O)(=O)N2C[C@@H](N)[C@H](c3cn(C)c4cnccc34)C2)cc1 , field EC50: 73.6

Note to self: EC50 recorded for NC(=O)C1CCN(C(=O)CN2CCN(c3ccnc4cc(Cl)ccc34)CC2)CC1 was 15.6

So, Cc1cnccc1CN1CC(C(=O)O)CC1=O (stereo not shown) ? Its EC50 was 20.1

Just so you know, measured EC50 for CC(=O)N1CCCC(CCCc2ccncc2)(C(=O)O)C1 (stereo not shown) came out at 13.2

// field: EC50; key: CN1CCN(c2ccnc3ccccc23)CC1C(=O)O (stereo not shown) ; value = 1.2

* * *

- test.system: hGPR65 (Homo sapiens, UniProt Q8IYL9)
- Construct: expressed in transfected cells; host or cells: HeLa (ATCC CCL-2), lentiviral transduction, pLX317
- test.name: cAMP detection in HeLa expression cell line, hGPR65
- Assay type: cell-based
- measurement.setup: HeLa, 1st hGPR column pair; relative to 100uM forskolin (100%) and DMSO (0%); NA = no activity; read-out: hGPR Max Activity %
Note to self: use label 1 only for Emax readings below 80%; a reading exactly at 80% still gets label 0.

Query block: Hello, is Emax of the following molecule strictly smaller than 80%? COCc1ccc(-c2cc(O)n3ncc(C(=O)Nc4ccc(OC)cc4)c3n2)cc1 [BRD5326]
Result block: label 0

Query block: Is it true that Emax reported for Cc1ccc(NC(=O)c2cnn3c(O)cc(-c4ccc(COC(C)C)cc4)nc23)cc1 [BRD5928] is less than 80%?
Result block: label 0

Query block: Decide: Emax of Cc1ncc(NC(=O)c2cnn3c(O)cc(-c4ccc(COC(C)C)cc4)nc23)cn1 [BRD5072] strictly below 80%?
Result block: label 1

Query block: Hello, I'm reviewing records and need to know if Emax of CNC(=O)c1ccc(-c2cc(O)n3ncc(C(=O)Nc4ccc(C)cc4)c3n2)cc1 [BRD5083] is below 80%. Could you check?
Result block: label 1

Query block: Given Cc1ccc(NC(=O)c2cnn3c(O)cc(-c4ccc(N5CCCC5)cc4)nc23)cc1 [BRD4336] , is recorded Emax strictly lower than 80%?
Result block: label 1
